Would you mind telling me the reported koff of each entry?
Molecular target: T1, Human BCMA (human, UniProt Q02223 1-54, limits assumed)
T1 construct: Soluble analyte in SPR; construct not described; also called huBCMA; B-cell maturation antigen
T1 sequence (looked up): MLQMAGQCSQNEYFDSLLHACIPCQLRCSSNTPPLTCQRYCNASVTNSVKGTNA
Test: SPR, IgG immobilised, 37 C
I only need the number, in s⁻¹, no unit after it.

**Query** Consider the binder shown here: L3.PY/L3.KF/H3.YA (antibody, V domains shown, IgG) VH: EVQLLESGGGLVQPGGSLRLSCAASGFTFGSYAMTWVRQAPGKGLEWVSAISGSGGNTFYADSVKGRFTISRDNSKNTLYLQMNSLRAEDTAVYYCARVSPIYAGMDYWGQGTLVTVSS VL: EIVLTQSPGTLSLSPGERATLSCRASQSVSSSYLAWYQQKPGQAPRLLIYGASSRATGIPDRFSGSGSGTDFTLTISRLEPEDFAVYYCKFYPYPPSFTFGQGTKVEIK What is its recorded koff?
**Result** 0.00147

**Query** Continue with L3.PY/H2.HA (antibody, V domains shown, IgG) VH: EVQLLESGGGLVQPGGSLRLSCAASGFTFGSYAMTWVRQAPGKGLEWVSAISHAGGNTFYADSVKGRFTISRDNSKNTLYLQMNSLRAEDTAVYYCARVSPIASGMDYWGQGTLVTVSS VL: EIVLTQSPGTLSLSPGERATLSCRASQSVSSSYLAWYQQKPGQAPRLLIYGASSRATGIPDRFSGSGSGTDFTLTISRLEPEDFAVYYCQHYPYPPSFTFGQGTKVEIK
**Result** 0.00147
